target: MCH R1 (melanine-concentrating hormone receptor-1) (Homo sapiens); construct: purchased Euroscreen, Gosselies, Belgium; assay: Inhibitory effects on MCH R1 binding (Eu-MCH time-resolved fluorescence binding assay); conditions: concentration inhibiting the binding of MCH (Eu-MCH, 2 nM) to MCH R1 by 50% in vitro; TRF readout; test range 1 nM to 10 μM; read-out: IC50
recordedEndpoint: pIC50
Give bare numbers, as −log10 of the molar value.

Examples with their reported pIC50 follow.
CC(=O)Nc1cccc(C2CCN(CCCn3c(-c4cccc(F)c4)nc4ccc(Cl)cc43)CC2)c1: 8.10
CC(=O)Nc1cccc(C2CCN(CCCn3c(-c4ccc(Cl)cc4)nc4c(C)c(C)ccc43)CC2)c1: 8.15

Would you kindly look at the next entry?
Lookup: Param readout= pIC50; system= MCH R1 (melanine-concentrating hormone receptor-1) (Homo sapiens); entry= CC(=O)Nc1cccc(C2CCN(CCCn3c(-c4ccc(-c5ccccc5)cc4)nc4ccccc43)CC2)c1 ; returns value.
Found: 8.10

---

target: MCH R1 (melanine-concentrating hormone receptor-1) (Homo sapiens); construct: purchased Euroscreen, Gosselies, Belgium; test: Inhibitory effects on MCH R1 binding (Eu-MCH time-resolved fluorescence binding assay); settings: concentration inhibiting the binding of MCH (Eu-MCH, 2 nM) to MCH R1 by 50% in vitro; TRF readout; test range 1 nM to 10 μM; read-out: IC50
pIC50: −log10 of the molar value.
Response field class: enum, chosen by comparing pIC50 against interval 1 (below 7), interval 2 (7 to below 8), interval 3 (8 or more)

As a guide, the following entries are already answered.
COc1ccc2c(c1)nc(-c1ccco1)n2CCCN1CCC(c2cccc(NC(C)=O)c2)CC1 [Example 119]: interval 1
CC(=O)Nc1cccc(C2CCN(CCCn3c(-c4ccc(Cl)cc4)nc4ccc(C(N)=O)cc43)CC2)c1 [Example 61]: interval 1

Lookup: Quick check: band for CC(=O)Nc1cccc(C2CCN(CCCn3c(-c4ccc(Br)o4)nc4ccccc43)CC2)c1 [Example 108]
Found: interval 3

Lookup: Quick check: band for CC(=O)Nc1cccc(C2CCN(CCCn3c(-c4ccc(F)cc4Cl)nc4ccccc43)CC2)c1 [Example 54]
Found: interval 3

Lookup: Quick check: band for CC(=O)Nc1cccc(C2CCN(CCCn3c(-c4cscn4)nc4ccccc43)CC2)c1 [Example 122]
Found: interval 1

Lookup: Quick check: band for CC(=O)Nc1cccc(C2CCN(CCCn3c(-c4cccnc4)nc4cc(Cl)ccc43)CC2)c1 [Example 116]
Found: interval 2

---

molecular target: MCH R1 (melanine-concentrating hormone receptor-1) (Homo sapiens, UniProt Q99705); construct: purchased Euroscreen, Gosselies, Belgium; test: Inhibitory effects on MCH R1 binding (Eu-MCH time-resolved fluorescence binding assay); conditions: concentration inhibiting the binding of MCH (Eu-MCH, 2 nM) to MCH R1 by 50% in vitro; TRF readout; test range 1 nM to 10 μM; read-out: IC50
Sequence (Q99705 whole entry, species assumed): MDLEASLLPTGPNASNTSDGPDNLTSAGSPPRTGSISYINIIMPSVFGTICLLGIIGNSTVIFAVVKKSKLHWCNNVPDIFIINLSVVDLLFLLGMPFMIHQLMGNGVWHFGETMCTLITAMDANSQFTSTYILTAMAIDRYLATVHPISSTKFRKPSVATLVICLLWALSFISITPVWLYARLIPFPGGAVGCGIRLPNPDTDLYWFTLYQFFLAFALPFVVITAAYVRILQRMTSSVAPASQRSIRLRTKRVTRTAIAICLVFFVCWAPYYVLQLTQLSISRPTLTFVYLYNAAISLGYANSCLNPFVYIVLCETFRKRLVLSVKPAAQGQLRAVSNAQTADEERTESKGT
recordedEndpoint: IC50 (nM)
Give bare numbers, in nM.

CC(=O)Nc1cccc(C2CCN(CCCCn3c(-c4ccc(Cl)cc4)nc4ccccc43)CC2)c1 [Example 6]: 1
CC(=O)Nc1cccc(C2CCN(CCCn3c(-c4ccccn4)nc4ccccc43)CC2)c1 [Example 104]: 33
CC(=O)Nc1cccc(C2CCN(CCCn3c(Cc4ccccn4)nc4ccccc43)CC2)c1 [Example 125]: 2
CCCCc1nc2cc(-c3ccccn3)c(C)nc2n1CCCN1CCC(c2cccc(NC(C)=O)c2)CC1 [Example 97]: 70
COc1ccc(Cl)cc1-c1nc2ccccc2n1CCCN1CCC(c2cccc(NC(C)=O)c2)CC1 [Example 56]: 66
CC(=O)Nc1cccc(C2CCN(CCCn3c(-c4cccn4C)nc4cc(C)c(C)cc43)CC2)c1 [Example 121]: 5

For each of the items listed, what is its IC50?
1. CC(=O)Nc1cccc(C2CCN(CCCn3c(-c4ccccc4O)nc4ccccc43)CC2)c1 [Example 63]
2. CC(=O)Nc1cccc(C2CCN(CCCn3c(C)nc4ccc(C)nc43)CC2)c1 [Example 91]
3. CC(=O)Nc1cccc(C2CCN(CCCn3c(-c4ccccc4Cl)nc4cc(C)c(C)cc43)CC2)c1 [Example 37]

Found:
1. 94
2. 2800
3. 39

---

target: MCH R1 (melanine-concentrating hormone receptor-1) (Homo sapiens, UniProt Q99705); construct: purchased Euroscreen, Gosselies, Belgium; experiment: Inhibitory effects on MCH R1 binding (Eu-MCH time-resolved fluorescence binding assay); details: concentration inhibiting the binding of MCH (Eu-MCH, 2 nM) to MCH R1 by 50% in vitro; TRF readout; test range 1 nM to 10 μM; read-out: IC50
recordedEndpoint: pIC50
Give bare numbers, as −log10 of the molar value.

Examples with their reported pIC50 follow.
CC(=O)Nc1cccc(C2CCN(CCCn3c(-c4ccc(Cl)cc4)nc4cc(F)ccc43)CC2)c1: 7.15
CC(=O)Nc1cccc(C2CCN(CCCCCn3c(-c4ccccc4)nc4ccccc43)CC2)c1: 7.13

Would you kindly look at the next entry?
Lookup: Reported pIC50 for COc1ccc(-c2nc3ccccc3n2CCCN2CCC(c3cccc(NC(C)=O)c3)CC2)cc1 : what is it?
Found: 8.05
